test: Cmax in dog at 0.5 mg/kg, po; format: ADME, organism-based, Canis lupus familiaris; set-up: dose 0.5 mg/kg, route oral; conditions: in vivo
observable: Cmax (nM)
Write the value in nM as a bare number.

Input: Identify the reported Cmax for the following entry. "O=C(N[C@H]1CCC[C@@H]1OCc1ccccc1)C1CCN(c2nc3cc(Cl)ccc3o2)CC1"
Output: 1300

----------
experiment: Half life in dog at 0.25 mg/kg, iv; format: ADME, organism-based, Canis lupus familiaris; set-up: dose 0.25 mg/kg, route intravenous; conditions: in vivo
observable: half-life (h)
Write the value in h as a bare number.

Input: Identify the reported half-life for the following entry. "O=C(N[C@H]1CCC[C@@H]1OCc1ccccc1)C1CCN(c2nc3cc(Cl)ccc3o2)CC1"
Output: 7.2

----------
pIC50: −log10 of the molar value.
observable: pIC50

Input: Jot down pIC50 (Hematopoietic prostaglandin D synthase (Homo sapiens)) of "O=C(N[C@H]1CCC[C@@H]1OCc1ccccc1)C1CCN(c2nc3cc(Cl)ccc3o2)CC1" .
Output: < 5.00

----------
experiment: Half life in rat liver microsomes; type: ADME, Microsome
observable: half-life (min)
Write the value in min as a bare number.

Input: Identify the reported half-life for the following entry. "O=C(N[C@H]1CCC[C@@H]1OCc1ccccc1)C1CCN(c2nc3cc(Cl)ccc3o2)CC1"
Output: 7.2

----------
Biological target: Prostaglandin E synthase (Homo sapiens)
Sequence (O14684 whole entry): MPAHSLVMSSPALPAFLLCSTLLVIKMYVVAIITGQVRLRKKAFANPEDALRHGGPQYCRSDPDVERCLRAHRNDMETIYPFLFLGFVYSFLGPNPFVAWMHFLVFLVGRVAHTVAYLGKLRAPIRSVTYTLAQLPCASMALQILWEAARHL
Assay: Inhibition of human recombinant mPGES-1 using PGH2 as substrate incubated 20 mins prior to substrate addition measured after 30 secs by EIA
pIC50: −log10 of the molar value.
observable: pIC50

Input: Identify the reported pIC50 for the following entry. "O=C(CCCNc1nc2cc(Cl)ccc2o1)NC1CCCC1"
Output: < 5.00

Input: Identify the reported pIC50 for the following entry. "O=C(NC1CCCC1)N1CCN(c2nc3cc(Cl)ccc3o2)CC1"
Output: < 5.00

Input: Identify the reported pIC50 for the following entry. "O=C(NC1CCCC1)N1CCCN(c2nc3cc(Cl)ccc3o2)CC1"
Output: 4.89

----------
Record form. Attribute: pIC50. Fill in for each entry.
molecular target: Prostaglandin E synthase (Homo sapiens); experiment: Inhibition of human recombinant mPGES-1 using PGH2 as substrate incubated 20 mins prior to substrate addition measured after 30 secs by EIA
Formally, pIC50 is defined as -log10 of the concentration c, with c in mol/L.

Input: Jot down pIC50 (Prostaglandin E synthase (Homo sapiens)) of "O=C(N[C@@H]1CCC[C@@H]1CO)C1CCN(c2nc3cc(Cl)ccc3o2)CC1" .
Output: 6.11

Input: Jot down pIC50 (Prostaglandin E synthase (Homo sapiens)) of "O=C(N[C@H]1CCC[C@@H]1CO)C1CCN(c2nc3cc(Cl)ccc3o2)CC1" .
Output: 5.49

Input: Jot down pIC50 (Prostaglandin E synthase (Homo sapiens)) of "O=C(N[C@@H]1CCC[C@@H]1COc1ccccc1)C1CCN(c2nc3cc(Cl)ccc3o2)CC1" .
Output: 7.37

Input: Jot down pIC50 (Prostaglandin E synthase (Homo sapiens)) of "O=C(NC1CCCCCC1)C1CCN(c2nc3cc(Cl)ccc3o2)CC1" .
Output: 6.09

Input: Jot down pIC50 (Prostaglandin E synthase (Homo sapiens)) of O=C(NC1CCCC1C(=O)O)C1CCN(c2nc3cc(Cl)ccc3o2)CC1 (stereo not given) .
Output: 5.14
